- Test system: intracellular amastigotes of L. panamensis (MHOM/CO/87/UA140-EGFP strain)
- protocol-description: Antileishmanial activity on intracellular amastigotes, flow cytometry
- Type: cell-based
- measurement-parameters: Leishmania panamensis, read-out: Antileishmanial activity
The molecules listed here are annotated with their EC50.
measured-parameter: EC50 (µM)

>>> value_measured("O=C1C(Cc2ccc(Cl)cc2)=CS(=O)(=O)c2ccccc21 [Compound 14b]")
63.6
>>> value_measured("O=C1C(Cc2cccs2)=CS(=O)(=O)c2ccccc21 [Compound 17b]")
16.5
>>> value_measured("O=C1C=CS(=O)(=O)c2c1cccc2-c1cc(C(F)(F)F)cc(C(F)(F)F)c1 [Compound 21c]")
9.3
>>> value_measured("O=C1C(Cc2ccco2)=CS(=O)(=O)c2ccccc21 [Compound 17a]")
72.9

----------
- Tested on: human monocytes (U-937 ATCC CRL-1593.2)
- protocol-description: Cytotoxic activity, MTT assay on U-937 cells
- Type: cell-based
- measurement-parameters: 72 h
Field: label. Allowed values: label 1 (Cytotoxicity CL50 < 80 µM) or label 0 (Cytotoxicity CL50 >= 80 µM).

>>> assigned_category("O=C1C(Cc2cccs2)=CS(=O)(=O)c2ccccc21 [Compound 17b]")
"label 1"
>>> assigned_category("O=C1C(Cc2ccccc2Cl)=CS(=O)(=O)c2ccccc21 [Compound 14a]")
"label 0"
>>> assigned_category("O=C1C=CS(=O)(=O)c2cc(-c3cc(C(F)(F)F)cc(C(F)(F)F)c3)ccc21 [Compound 21b]")
"label 1"
>>> assigned_category("O=C1C=CS(=O)(=O)c2ccc(Cl)cc21")
"label 0"
>>> assigned_category("O=C1C=CS(=O)(=O)c2c(Br)cccc21 [Compound 6f, 8-Bromo-4H-thiochromen-4-one 1,1-dioxide]")
"label 0"

----------
The molecules listed here are annotated with their Cytotoxicity CL50.
- System: human monocytes (U-937 ATCC CRL-1593.2)
- protocol-description: Cytotoxic activity, MTT assay on U-937 cells
- Type: cell-based
- measurement-parameters: 72 h
measured-parameter: Cytotoxicity CL50 (µM)

>>> value_measured("O=C1C=CS(=O)(=O)c2c1cccc2-c1cc(C(F)(F)F)cc(C(F)(F)F)c1 [Compound 21c]")
23.20
>>> value_measured("CC1=CC(=O)c2ccccc2S1(=O)=O [Compound 11a]")
59.12
>>> value_measured("O=C1C=CS(=O)(=O)c2ccc(F)cc21 [Compound 6b]")
274.83
>>> value_measured("O=C1C=CS(=O)(=O)c2cc(Br)ccc21 [Compound 6e, 7-Bromo-4H-thiochromen-4-one 1,1-dioxide]")
252.48
>>> value_measured("O=C1C=CS(=O)(=O)c2ccc(-c3cc(C(F)(F)F)cc(C(F)(F)F)c3)cc21 [Compound 21a]")
83.61
